- TARGET: wild type PRC2 (wtPRC2) complex (Homo sapiens (Human), UniProt O75530)
- Sequence (O75530 whole entry): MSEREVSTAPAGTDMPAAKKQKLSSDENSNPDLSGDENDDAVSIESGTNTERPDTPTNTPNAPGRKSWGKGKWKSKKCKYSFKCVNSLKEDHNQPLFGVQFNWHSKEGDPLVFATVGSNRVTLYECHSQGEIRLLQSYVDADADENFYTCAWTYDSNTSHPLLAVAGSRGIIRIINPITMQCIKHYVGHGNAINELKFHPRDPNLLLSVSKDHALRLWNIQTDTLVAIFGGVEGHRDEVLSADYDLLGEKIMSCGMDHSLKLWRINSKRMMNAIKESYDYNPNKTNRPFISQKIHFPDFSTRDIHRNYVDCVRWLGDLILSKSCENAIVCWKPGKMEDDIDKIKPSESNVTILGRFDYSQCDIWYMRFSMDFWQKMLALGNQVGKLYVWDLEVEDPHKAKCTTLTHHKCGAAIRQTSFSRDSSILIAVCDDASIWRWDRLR
- Sequence (Q15910 whole entry partner): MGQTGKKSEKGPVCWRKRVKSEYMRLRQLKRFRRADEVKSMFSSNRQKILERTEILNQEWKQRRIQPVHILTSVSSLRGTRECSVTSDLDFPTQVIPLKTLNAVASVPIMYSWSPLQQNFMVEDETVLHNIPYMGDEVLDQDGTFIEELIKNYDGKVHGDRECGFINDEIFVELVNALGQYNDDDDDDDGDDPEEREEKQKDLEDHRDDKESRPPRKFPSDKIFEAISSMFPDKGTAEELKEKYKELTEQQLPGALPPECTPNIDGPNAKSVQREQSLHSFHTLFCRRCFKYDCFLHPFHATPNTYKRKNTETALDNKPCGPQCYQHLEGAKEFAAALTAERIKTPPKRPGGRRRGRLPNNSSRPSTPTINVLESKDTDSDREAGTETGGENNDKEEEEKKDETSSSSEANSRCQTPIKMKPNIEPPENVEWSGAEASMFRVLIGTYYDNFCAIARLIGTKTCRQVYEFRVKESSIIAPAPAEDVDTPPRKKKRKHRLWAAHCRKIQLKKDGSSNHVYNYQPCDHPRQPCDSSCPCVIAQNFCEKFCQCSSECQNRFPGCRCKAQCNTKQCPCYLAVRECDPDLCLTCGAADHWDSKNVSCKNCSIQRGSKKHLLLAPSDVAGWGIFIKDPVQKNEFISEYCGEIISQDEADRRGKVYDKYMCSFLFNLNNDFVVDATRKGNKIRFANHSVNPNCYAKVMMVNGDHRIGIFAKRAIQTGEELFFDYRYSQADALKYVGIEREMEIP
- Sequence (Q15022 whole entry partner): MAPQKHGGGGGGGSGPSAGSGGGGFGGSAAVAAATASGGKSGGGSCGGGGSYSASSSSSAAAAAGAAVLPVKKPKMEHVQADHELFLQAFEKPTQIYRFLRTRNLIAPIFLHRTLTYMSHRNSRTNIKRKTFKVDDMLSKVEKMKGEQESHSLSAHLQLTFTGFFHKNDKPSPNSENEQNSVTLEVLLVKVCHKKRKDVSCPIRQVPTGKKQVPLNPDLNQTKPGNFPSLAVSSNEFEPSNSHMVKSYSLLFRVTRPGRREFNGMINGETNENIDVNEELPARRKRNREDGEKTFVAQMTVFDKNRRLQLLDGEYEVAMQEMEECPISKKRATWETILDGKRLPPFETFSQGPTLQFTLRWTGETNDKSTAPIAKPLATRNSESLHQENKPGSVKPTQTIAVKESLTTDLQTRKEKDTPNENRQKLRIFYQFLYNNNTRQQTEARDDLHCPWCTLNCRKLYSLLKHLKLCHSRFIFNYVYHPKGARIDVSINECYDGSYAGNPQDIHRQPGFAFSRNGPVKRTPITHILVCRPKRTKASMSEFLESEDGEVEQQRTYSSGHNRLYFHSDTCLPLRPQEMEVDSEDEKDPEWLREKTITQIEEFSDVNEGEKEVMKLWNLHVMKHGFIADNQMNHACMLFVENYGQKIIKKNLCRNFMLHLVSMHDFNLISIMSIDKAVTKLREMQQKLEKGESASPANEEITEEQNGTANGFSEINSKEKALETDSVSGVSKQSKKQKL
- TEST_PROTOCOL: EED LC-MS assay
- CONDITION_CONTEXT: read-out: (b) IC50 EED LC-MS Qualified
REPORTED_PROPERTY: IC50 (nM)
Just the number in nM, nothing appended.

The examples below pair each entry with its known result.
MOLECULE: Nc1cc(F)c(-c2cnc(NCc3cccc4c3CCO4)n3cnnc23)cn1 [Example 58]
UNIT_OF_MEASUREMENT: nM
IC50: 13
--
MOLECULE: Fc1ccc2c(c1CNc1ncc(-c3ccnnc3)c3nncn13)CCO2 [Example 202]
UNIT_OF_MEASUREMENT: nM
IC50: 18.7
--
MOLECULE: c1cncc(-c2cnc(NCc3cccc4occc34)n3cnnc23)c1 [Example 213]
UNIT_OF_MEASUREMENT: nM
IC50: 25.6

Query: Form entry - test system: wild type PRC2 (wtPRC2) complex (Homo sapiens (Human), UniProt O75530); read-out: IC50; molecule: CC1(C)COC(c2cncc(-c3cnc(NCc4cccc5c4CCO5)n4cnnc34)c2)=N1 [Example 90]
Reply: 30.3

Query: Form entry - test system: wild type PRC2 (wtPRC2) complex (Homo sapiens (Human), UniProt O75530); read-out: IC50; molecule: Cc1cc(F)ccc1-c1cnc(NCc2c(F)ccc3c2CCO3)n2cnnc12 [Example 165]
Reply: 7.4

Query: Form entry - test system: wild type PRC2 (wtPRC2) complex (Homo sapiens (Human), UniProt O75530); read-out: IC50; molecule: CN(C)C(=O)CCc1ccc(-c2cnc(NCc3cccc4c3CCO4)n3cnnc23)cn1 [Example 135]
Reply: 11.2

Query: Form entry - test system: wild type PRC2 (wtPRC2) complex (Homo sapiens (Human), UniProt O75530); read-out: IC50; molecule: Cn1nccc1-c1cnc(NCc2cccc3c2CCO3)n2cnnc12 [Example 152]
Reply: 6.9

* * *

- TARGET: EED (1-441)-His protein (Homo sapiens (Human))
This listing pairs compounds with measured IC50.
Just the number in nM, nothing appended.

COMPOUND: COc1ncc(-c2cnc(NCc3c(F)ccc4c3CCO4)n3cnnc23)c(C)n1
VAL: 6.3

COMPOUND: N#Cc1ccc(-c2cnc(NCc3c(F)ccc4c3CCO4)n3cnnc23)cn1
VAL: 7.9

COMPOUND: Fc1ccc2c(c1CNc1ncc(-c3ccc(C(F)(F)F)nc3)c3nncn13)CCO2
VAL: 5.9

COMPOUND: Fc1ccc2c(c1CNc1ncc(-c3cccnc3F)c3nncn13)CCO2
VAL: 4.7

COMPOUND: c1cc(CNc2ncc(-c3cnn(C4CC4)c3)c3nncn23)c2c(c1)OCC2
VAL: 16.9

Query: GET /values?readout=IC50&item= Cc1ncccc1-c1cnc(NCc2cccc3c2CCO3)n2cnnc12
Reply: 12.3

Query: GET /values?readout=IC50&item= Fc1ccc2c(c1CNc1ncc(-n3cncn3)c3nncn13)CCO2
Reply: 11.3

Query: GET /values?readout=IC50&item= O=C1CN(Cc2ccc(-c3cnc(NCc4cccc5c4CCO5)n4cnnc34)cn2)CCN1
Reply: 8.7

Query: GET /values?readout=IC50&item= CS(=O)(=O)Nc1ccc(-c2cnc(NCc3cccc4c3CCO4)n3cnnc23)cc1F
Reply: 28.5

Query: GET /values?readout=IC50&item= CN(C)C(=O)c1ccc(-c2cnc(NCc3c(F)ccc4c3CCO4)n3cnnc23)cc1
Reply: 21.1

Query: GET /values?readout=IC50&item= O=C(c1ccc(-c2cnc(NCc3cccc4occc34)n3cnnc23)cc1)N1CCCC1
Reply: 132

Query: GET /values?readout=IC50&item= COc1ccc(-c2cnc(NCc3c(F)ccc4c3CCO4)n3cnnc23)c(C)n1
Reply: 17

Query: GET /values?readout=IC50&item= Cc1cnc(C(F)F)cc1-c1cnc(NCc2c(F)ccc3c2CCO3)n2cnnc12
Reply: 4.4

Query: GET /values?readout=IC50&item= CCc1ccc(-c2cnc(NCc3c(F)ccc4c3CCO4)n3cnnc23)c(C)n1
Reply: 5.9

Query: GET /values?readout=IC50&item= Cn1ncc(-c2cnc(NCc3c(F)ccc4c3CCO4)n3cnnc23)c1CO
Reply: 6.1

Query: GET /values?readout=IC50&item= Cc1nc(CN(C)C)ccc1-c1cnc(NCc2c(F)ccc3c2CCO3)n2cnnc12
Reply: 8.4

Query: GET /values?readout=IC50&item= CC(=O)N1CCN(CCc2ccc(-c3cnc(NCc4cccc5c4CCO5)n4cnnc34)cn2)CC1
Reply: 6.7

Query: GET /values?readout=IC50&item= OCCN1CCN(c2ccc(-c3cnc(NCc4cccc5c4CCO5)n4cnnc34)cn2)CC1
Reply: 9.3

Query: GET /values?readout=IC50&item= Cc1ncc(-c2cnc(NCc3c(F)ccc4c3CCO4)n3cnnc23)c(C)n1
Reply: 3.8

Query: GET /values?readout=IC50&item= Cc1cc(C(=O)N2CCCC2)ncc1-c1cnc(NCc2c(F)ccc3c2CCO3)n2cnnc12
Reply: 5

Query: GET /values?readout=IC50&item= Cc1cnc(F)cc1-c1cnc(NCc2c(F)ccc3c2CCO3)n2cnnc12
Reply: 4.8

Query: GET /values?readout=IC50&item= Cc1c(-c2cnc(NCc3c(F)ccc4c3CCO4)n3cnnc23)ccc[n+]1[O-]
Reply: 10.6

Query: GET /values?readout=IC50&item= CS(=O)(=O)CCOc1ccc(-c2cnc(NCc3cccc4c3CCO4)n3cnnc23)cc1
Reply: 34

Query: GET /values?readout=IC50&item= Cc1nn(C(C)C)cc1-c1cnc(NCc2cccc3c2CCO3)n2cnnc12
Reply: 16.7

Query: GET /values?readout=IC50&item= CC(c1ccc(-c2cnc(NCc3cccc4c3CCO4)n3cnnc23)cc1)N1CCCC1 (stereo not shown)
Reply: 7.8

Query: GET /values?readout=IC50&item= Fc1ccc2c(c1CNc1ncc(-c3ccc(Cl)cc3Cl)c3nncn13)CCO2
Reply: 23

* * *

This listing pairs compounds with measured IC50.
- TARGET: wild type PRC2 (wtPRC2) complex (Homo sapiens (Human))
- TEST_PROTOCOL: EED LC-MS assay
- CONDITION_CONTEXT: read-out: (b) IC50 EED LC-MS Qualified
Just the number in nM, nothing appended.

COMPOUND: Cc1c(-c2cnc(NCc3c(F)ccc4c3CCO4)n3cnnc23)ccnc1CF
UNIT_OF_MEASUREMENT: nM
VAL: 5.6

COMPOUND: Cc1nn(CCO)c(C)c1-c1cnc(NCc2c(F)ccc3c2CCO3)n2cnnc12
UNIT_OF_MEASUREMENT: nM
VAL: 9.6

COMPOUND: COCCn1nc(C)c(-c2cnc(NCc3c(F)ccc4c3CCO4)n3cnnc23)c1C
UNIT_OF_MEASUREMENT: nM
VAL: 10.3

COMPOUND: CN(C)Cc1ccc(-c2cnc(NCc3cccc4occc34)n3cnnc23)cc1
UNIT_OF_MEASUREMENT: nM
VAL: 12.7

COMPOUND: CC(c1ccc(-c2cnc(NCc3c(F)ccc4c3CCO4)n3cnnc23)cc1)N1CCCC1 (stereo not drawn)
UNIT_OF_MEASUREMENT: nM
VAL: 64

Query: GET /values?readout=IC50&item= Fc1ccc2c(c1CNc1ncc(-c3ccnc(C(F)(F)F)c3)c3nncn13)CCO2
Reply: 6.7

Query: GET /values?readout=IC50&item= CS(=O)(=O)CCCOc1cncc(-c2cnc(NCc3cccc4c3CCO4)n3cnnc23)c1
Reply: 35.6

Query: GET /values?readout=IC50&item= CN(C)C(=O)c1cccc(-c2cnc(NCc3cccc4c3CCO4)n3cnnc23)c1
Reply: 33.1

Query: GET /values?readout=IC50&item= CS(=O)(=O)Nc1ccc(-c2cnc(NCc3c(F)ccc4c3CCO4)n3cnnc23)cc1F
Reply: 17.5

Query: GET /values?readout=IC50&item= Cc1nn(C(C)C)cc1-c1cnc(NCc2c(F)ccc3c2CCO3)n2cnnc12
Reply: 3.9

Query: GET /values?readout=IC50&item= Cc1ncc(-c2cnc(NCc3c(F)ccc4c3CCO4)n3cnnc23)n1C
Reply: 223

Query: GET /values?readout=IC50&item= Fc1ccc2c(c1CNc1ncc(-c3ccccn3)c3nncn13)CCO2
Reply: 6

Query: GET /values?readout=IC50&item= Cn1ncc(-c2cnc(NCc3c(F)ccc4c3CCO4)n3cnnc23)c1CO
Reply: 7.5

Query: GET /values?readout=IC50&item= Cc1cc(C)c(-c2cnc(NCc3c(F)ccc4c3CCO4)n3cnnc23)cn1
Reply: 14

Query: GET /values?readout=IC50&item= Fc1ccc2c(c1CNc1ncc(-c3cccnc3)c3nncn13)CCO2
Reply: 19.2

Query: GET /values?readout=IC50&item= COc1ncc(-c2cnc(NCc3c(F)ccc4c3CCO4)n3cnnc23)c(C)n1
Reply: 9.2

Query: GET /values?readout=IC50&item= Fc1ccc(-c2cnc(NCc3c(F)ccc4c3CCO4)n3cnnc23)c(Cl)c1
Reply: 46.3

Query: GET /values?readout=IC50&item= O=C1CN(CCc2ccc(-c3cnc(NCc4cccc5c4CCO5)n4cnnc34)cn2)CCN1
Reply: 13.7

FYI, the data here is from patent US9580437B2.
